Read-out: JUN Transcription Factor, JUN (gene 3725)
Experiment: LTEA_HepaRG_JUN: Life Technologies and Expression Analysis (LTEA) Assay for JUN Transcription Factor using HepaRG (AID 2283513)
Details: mRNA level, 48 h; actives raise or lower the signal
Activity calls are given as the source filed them. Rule for the calls: active = hit-call score of the fitted dose curve at least 0.9, where 1 is the maximum; inactive = score below 0.9.
recordedMetric: AC50

Examples from the recorded data:
Cc1ncc(CO)c(CO)c1O :: inactive
CCCCOC(=O)c1ccc(O)cc1 :: inactive
O=CCCCC=O :: inactive
CCN(Cc1cccc(S(=O)(=O)O)c1)c1ccc(C(=C2C=CC(=[N+](CC)Cc3cccc(S(=O)(=O)O)c3)C=C2)c2ccccc2S(=O)(=O)[O-])cc1 :: inactive
O=C(OCCCCCCOC(=O)c1ccccc1)c1ccccc1 :: inactive
CC/C(=C(/CC)c1ccc(O)cc1)c1ccc(O)cc1 :: 79.2 µM (active)
O=C(O)Cc1cc(I)c(Oc2ccc(O)c(I)c2)c(I)c1 :: 80.7 µM (active)
Clc1ccccc1C(c1ccccc1)(c1ccccc1)n1ccnc1 :: 66 µM (active)
COc1cccc([C@H](O)C2CCN(CCc3ccc(F)cc3)CC2)c1OC :: inactive
CCCCCCCCOc1ccc(C(=O)c2ccccc2)c(O)c1 :: inactive

Quick one: AC50 for "CCOC(=O)O[C@H](C)OC(=O)c1ccc2c(c1)cc(C(=O)NC1CCN(C(C)C)CC1)n2Cc1cc(-c2ccc(Cl)s2)on1" ? inactive

----------
Test: BSK_3C_TissueFactor: BioMAP Diversity Plus: 3C Assay for Tissue Factor Biomarker Activity (AID 2282997)
Details: BioMAP 3C HUVEC, tissue factor biomarker readout; actives raise or lower the signal
Activity calls are given as the source filed them. The calls were made as follows: active = hit-call score of the fitted dose curve at least 0.9, where 1 is the maximum; inactive = score below 0.9.
I would appreciate it if you answered using one of these outcomes: Y = active, N = inactive

Called result for "O=c1[nH]sc2ccccc12" Y

Further, for "O=c1ccc2ccccc2o1" ? N

Further, for "CCN(CC)C(=O)c1cc(S(=O)(=O)Cc2ccccc2)c(N2CCC(c3ccccc3)CC2)cc1N(CC)CCN(C)C" ? Y

Further, for "CCN(Cc1cccnc1)C(=O)c1cccc(Cl)c1[C@]1(C)C(=O)N(Cc2ccc(OC)cc2OC)c2ccc(Cl)cc21" ? Y

Further, for "O=C1c2ccccc2C(=O)N1CCc1noc(-c2ccc(CN3CCCCCC3)s2)n1" ? N

Further, for "CCCCOC(=O)c1ccc(O)cc1" ? Y

Further, for "CCCCCCCCCCCO" ? Y

Further, for "Cc1occc1C(=O)Nc1ccc(C(=O)N2CCC(F)(F)/C(=C\C(=O)N3CCC(N4CCCCC4)CC3)c3ccccc32)cc1" ? N

Further, for "CC[C@H](NC(=O)c1cc(F)ccc1NS(=O)(=O)c1cccc2cccnc12)c1ccccc1" ? N

Further, for "Cc1cccc2ccccc12" ? N

Further, for "CCCCCCCCOc1ccc(C(=O)c2ccccc2)c(O)c1" ? Y

Further, for CN1C(=O)N(c2ccccc2Br)Cc2cnc(Nc3ccc4c(c3)OCC(CO)O4)nc21 (stereo not drawn) ? Y

Further, for "O=C(O)c1ccccc1C(=O)OCc1ccccc1" ? N

Further, for "O=C1CCC(C2CCCCC2)CC1" ? N

Further, for "c1ccc2ccccc2c1" ? N

Further, for "Clc1ccccc1C(c1ccccc1)(c1ccccc1)n1ccnc1" ? Y

Further, for "O=C(O)c1ccccc1-n1cc(C(=O)O)c(=O)c2cc(Nc3c(F)cc(F)cc3Cl)c(Cl)cc21" ? N

Further, for "O=C(O)Cc1cc(I)c(Oc2ccc(O)c(I)c2)c(I)c1" ? N

Further, for "CC(C)(c1cc(Br)c(O)c(Br)c1)c1cc(Br)c(O)c(Br)c1" ? Y

Further, for "c1ccc(C[n+]2cccc3ccccc32)cc1" ? N

Further, for CC(O)CC(C)(C)O (stereo not drawn) ? N

Further, for "Cc1ncc(CO)c(CO)c1O" ? N

Further, for "CN(C)c1ccc(C(=C2C=CC(=[N+](C)C)C=C2)c2ccc(N(C)C)cc2)cc1" ? Y

Further, for COCC(C)OCC(C)OCC(C)O (stereo not drawn) ? N

Further, for "OCCO" ? N

Further, for "Cc1cc2c(cc1C(F)(F)F)N(C(=O)Nc1ccc(Oc3cccnc3C)nc1)CC2" ? Y

Further, for "CO[C@H]1/C=C/O[C@@]2(C)Oc3c(C)c(O)c4c(O)c(c(/C=N/N5CCN(C)CC5)c(O)c4c3C2=O)NC(=O)/C(C)=C\C=C\[C@H](C)[C@H](O)[C@@H](C)[C@@H](O)[C@@H](C)[C@H](OC(C)=O)[C@@H]1C" ? N

Further, for "Cc1ccc(C(C)C)cc1" ? N

Further, for "CN(C)C(=O)C1(N2CCCCC2)CCN(CC[C@@]2(c3ccc(Cl)c(Cl)c3)CN(C(=O)c3ccccc3)CCO2)CC1" ? Y

Further, for "CCO[Si](CCCNC(N)=O)(OCC)OCC" ? N

Further, for "COc1ccc2cc(S(=O)(=O)N[C@H](CC(=O)N[C@H](Cc3ccc(CN4[C@H](C)CCC[C@@H]4C)cc3)C(=O)N(C)C(C)C)c3ccc4c(c3)OCO4)ccc2c1" ? Y

Further, for "CCCCCCCCCCCC[N+](C)(C)C" ? N

Further, for "CCOC(=O)O[C@H](C)OC(=O)c1ccc2c(c1)cc(C(=O)NC1CCN(C(C)C)CC1)n2Cc1cc(-c2ccc(Cl)s2)on1" ? Y

Further, for "O=C(Nc1ccc(Cl)cc1)Nc1ccc(Cl)c(Cl)c1" ? N

Further, for "NC(=O)c1nc(-c2cccc(-c3cc(F)ccc3OCC(F)(F)C(F)(F)F)c2)n[nH]1" ? Y

Further, for "CCN(Cc1cccc(S(=O)(=O)O)c1)c1ccc(C(=C2C=CC(=[N+](CC)Cc3cccc(S(=O)(=O)O)c3)C=C2)c2ccccc2S(=O)(=O)[O-])cc1" ? N

Further, for "O=C(OCCCCCCOC(=O)c1ccccc1)c1ccccc1" ? N

Further, for "CC1(C)NC(=O)N(c2ccc([N+](=O)[O-])c(C(F)(F)F)c2)C1=O" ? N

Further, for "Oc1ccccc1" ? N

Further, for "CC/C(=C(/CC)c1ccc(O)cc1)c1ccc(O)cc1" ? Y

Further, for "Cc1cc(F)ccc1-c1cc(N2CC[C@@H](O)[C@H]2CO)ncc1N(C)C(=O)C(C)(C)c1cc(C(F)(F)F)cc(C(F)(F)F)c1" ? Y

Further, for "O=C(O)Cn1c(=O)n(Cc2ccc(Br)cc2F)c(=O)c2ccc(Cl)cc21" ? N

Further, for "CC1=CC(=O)/C(=C(/C)O)C(=O)O1" ? N
